Taken from paper PMC4502315.

test: LDH release assay, HPMCs; format: cell-based, human; settings: human, 50 μM, percentage of control cells
Measured endpoint: viability at 24 h, 50 µM

Request the reported viability at 24 h, 50 µM associated with Oc1ccc(/C=C/c2ccc(O)c(O)c2)cc1O [3,3′,4,4′-THS, 3,3′,4,4′-tetrahydroxy-trans-stilbene]
100%

###

assay: LDH release assay, HPMCs; type: cell-based, human; settings: human, 100 μM, percentage of control cells
Measured endpoint: viability at 24 h, 100 µM (%)
Return type: number; implicit unit %.

Any idea what its viability at 24 h, 100 µM is? The compound is Oc1ccc(/C=C/c2ccc(O)c(O)c2)cc1O [3,3′,4,4′-THS, 3,3′,4,4′-tetrahydroxy-trans-stilbene]
102
